# maps each entry to its cytotoxicity at 10 µM
measurementProtocol: Toxicity liver stage against HepG2, at 10uM
Format: cell-based
Parameters: test concentration 10 uM, cell line HepG2-A16-CD81EGFP
experimentalContext: human, HepG2-A16-CD81EGFP cells; read-out: INHIBITION
Write down the value, and be sure its unit follows.

compound=Cc1nc(-c2ccccc2C)n(CC(=O)NC2CCCC2)n1 observedresult=5.48%
compound="Cc1nccc(CNS(=O)(=O)N2CCCC2c2ccc(C)o2)n1 (stereo unspecified)" observedresult=-5.88%
compound="Cc1cc(NC(=O)NCC(C)N2CCc3ccccc32)no1 (stereo unspecified)" observedresult=-6.34%
compound="Cc1ccc(CN2CCOC3(COCCN(C(C)C)C3)C2)o1 (stereo unspecified)" observedresult=-107%
compound=Nc1nc2c(c(NCc3ccc(C(=O)N4CCCC4)cc3)n1)CCCC2 observedresult=21.1%
compound=Cc1ccc(N2CCc3ncnc(C4CC4)c3CC2)nn1 observedresult=-85%
compound="CC(O)Cc1cn(CC2CCN(C3CCSCC3)CC2)nn1 (stereo unspecified)" observedresult=8.88%
compound=CN(C(=O)c1ccc(Cl)cc1)C1CCN(c2ccccn2)CC1 observedresult=-21%
compound=COC1CCN(C(=O)CCn2ccc(=O)[nH]c2=O)CC1 observedresult=-4.73%
compound="COc1ccccc1N1CCC(CNS(=O)(=O)c2c(C)nn(C)c2C)C1 (stereo unspecified)" observedresult=-21.8%

Turning to the following compound.
**Query** Look up cytotoxicity at 10 µM: CO[C@H]1CCN(c2nnc(C)s2)C[C@@H]1Cc1ccccc1
**Result** 11.8%
